system: primary human hepatic stellate cells (donor 1); assay: scaled lipid accumulation score (0 = DMSO-like, 1 = nortriptyline-like); higher = stronger HSC inactivation (lipid re-accumulation), active = hit call of the paper; conditions: library stock concentration: 100 uM; 48 h
About 620 (11%) of roughly 5,800 compounds showed activity. What follows is part of a selection rich in actives, with near analogues and random picks from the rest.

{"MOLECULE SMILES": "CCCCC[C@H](O)/C=C/C=C\\C/C=C\\C/C=C\\CCCC(=O)O", "scaled lipid accumulation score": "≤ -0.02 (inactive)"}
{"MOLECULE SMILES": "CCCCC/C=C\\C\\C=C/C=C/C=C/[C@@H](SC[C@H](N)C(=O)O)[C@@H](O)CCCC(=O)O", "scaled lipid accumulation score": "0.015 (inactive)"}
{"MOLECULE SMILES": "CCCCC/C=C\\C\\C=C/C=C/C=C/CC(=O)CCCC(=O)O", "scaled lipid accumulation score": "≤ -0.021 (inactive)"}

----------
tested on: primary human hepatic stellate cells (donor 1); test: scaled lipid accumulation score (0 = DMSO-like, 1 = nortriptyline-like); higher = stronger HSC inactivation (lipid re-accumulation), active = hit call of the paper; settings: library stock concentration: 10 mM; 48 h
Where a name gives a salt, the structure may show the parent alone. In all, about 5,800 compounds went through this assay and about 620 (11%) showed activity.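 The calls were made as follows: active = score above a cut-off or among the top three wells of a plate; in these data no inactive exceeds 0.85.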 What follows is part of a selection rich in actives, with near analogues and random picks from the rest.
Classes used: active, inactive

{"MOLECULE": "CCC[C@H](NC(=O)[C@@H]1[C@H]2CCC[C@H]2CN1C(=O)[C@@H](NC(=O)[C@@H](NC(=O)c1cnccn1)C1CCCCC1)C(C)(C)C)C(=O)C(=O)NC1CC1", "GROUP LABEL": "inactive"}
{"MOLECULE": "CCN(CC)C(=O)c1cccnc1", "GROUP LABEL": "inactive"}
{"MOLECULE": "CC(=O)NC(C(=O)O)c1ccccc1 (configuration not stated)", "GROUP LABEL": "inactive"}
{"MOLECULE": "c1ccc(C2CN3CCSC3=N2)cc1 (single isomer, unassigned; (-)) [(-)-Tetramisole hydrochloride]", "GROUP LABEL": "inactive"}
{"MOLECULE": "Cc1cc(Nc2ncc(Cl)c(Nc3ccccc3S(=O)(=O)C(C)C)n2)c(OC(C)C)cc1C1CCNCC1", "GROUP LABEL": "inactive"}
{"MOLECULE": "NC(=O)N1c2ccccc2CC(=O)c2ccccc21", "GROUP LABEL": "inactive"}
{"MOLECULE": "Cc1nc2c(-c3cnc(N)nc3)nc(N3CCOCC3)nc2n1C(C)C", "GROUP LABEL": "inactive"}
{"MOLECULE": "Nc1nc2c(nc(Br)n2[C@@H]2O[C@@H]3COP(=O)(O)O[C@H]3[C@H]2O)c(=O)[nH]1 [8-Bromo-cGMP, sodium salt]", "GROUP LABEL": "inactive"}
{"MOLECULE": "CCOC(=O)c1cnc2ccc(-c3cncc(NS(=O)(=O)c4ccccc4)c3)cn12", "GROUP LABEL": "active"}
{"MOLECULE": "CN1CCC(=C2c3ccccc3CC(=O)c3sccc32)CC1", "GROUP LABEL": "inactive"}
{"MOLECULE": "CN1CCC(=C2c3ccccc3CC(=O)c3sccc32)CC1 [Ketotifen Fumarate]", "GROUP LABEL": "inactive"}
{"MOLECULE": "NS(=O)(=O)C#Cc1ccccc1", "GROUP LABEL": "active"}
{"MOLECULE": "CCOc1ccc(Nc2nc(-c3c(C)nc4ccccn34)cs2)cc1", "GROUP LABEL": "inactive"}
{"MOLECULE": "C[C@@H]1CN(c2c(F)c(F)c3c(=O)c(C(=O)O)cn(C4CC4)c3c2F)C[C@H](C)N1", "GROUP LABEL": "inactive"}
{"MOLECULE": "Cc1nc2c(c(=O)[nH]1)CSCC2", "GROUP LABEL": "inactive"}
{"MOLECULE": "CN1CCc2nc(C(=O)N[C@@H]3C[C@@H](C(=O)N(C)C)CC[C@@H]3NC(=O)C(=O)Nc3ccc(Cl)cn3)sc2C1", "GROUP LABEL": "inactive"}
{"MOLECULE": "CN(NC(=O)CC(=O)NN(C)C(=S)c1ccccc1)C(=S)c1ccccc1 [Elesclomol (STA-4783)]", "GROUP LABEL": "inactive"}
{"MOLECULE": "COc1ccc(C2(O)OC(=O)C(c3ccc4c(c3)OCO4)=C2Cc2cc(OC)c(OC)c(OC)c2)cc1 (configuration not stated)", "GROUP LABEL": "inactive"}
{"MOLECULE": "CCOC(=O)CCC(=O)O[C@H]1[C@H](O[C@@H]2[C@@H](C)[C@H](O[C@H]3C[C@@](C)(OC)[C@@H](O)[C@H](C)O3)[C@@H](C)C(=O)O[C@H](CC)[C@@](C)(O)[C@H](O)[C@@H](C)C(=O)[C@H](C)C[C@@]2(C)O)O[C@H](C)C[C@@H]1N(C)C", "GROUP LABEL": "inactive"}
{"MOLECULE": "Cc1nc2n(c(=O)c1CCN1CCC(c3noc4cc(F)ccc34)CC1)CCCC2O (configuration not stated)", "GROUP LABEL": "inactive"}
{"MOLECULE": "CC(C)OC(=O)OCOP(=O)(CO[C@H](C)Cn1cnc2c(N)ncnc21)OCOC(=O)OC(C)C [Tenofovir Disoproxil Fumarate]", "GROUP LABEL": "inactive"}
{"MOLECULE": "COc1ccc(-c2cc(=O)c3c(O)c(OC)c(OC)cc3o2)cc1O", "GROUP LABEL": "inactive"}

----------
tested on: primary human hepatic stellate cells (donor 1); experiment: scaled lipid accumulation score (0 = DMSO-like, 1 = nortriptyline-like); higher = stronger HSC inactivation (lipid re-accumulation), active = hit call of the paper; details: library stock concentration: 1 mM; 48 h
Structures can show the parent of a compound that is named as a salt. Among all 5,800 compounds or so, about 620 (11%) showed activity. The sample holds actives, similar compounds and a random draw of the others, so the mix is not that of the screen.
PROPERTY NAME: scaled lipid accumulation score

{"MOLECULE": "CCCCCCCCNC(=O)Cc1c(C)n(C(=O)c2ccc(Cl)cc2)c2ccc(OC)cc12 [Indomethacin N-octyl amide]", "ENDPOINT VALUE": "≤ 0 (inactive)"}
{"MOLECULE": "COCCCCCCCCCCCC(=O)O", "ENDPOINT VALUE": "≤ -0.021 (inactive)"}
{"MOLECULE": "CCCCC[C@H](O)/C=C/[C@@H]1[C@@H](CC(=O)CCCCC(=O)O)[C@@H](O)C[C@H]1O", "ENDPOINT VALUE": "≤ 0 (inactive)"}
{"MOLECULE": "CCCCCCCC/C=C\\CCCCCCCC(=O)c1nc2ncccc2o1", "ENDPOINT VALUE": "0.017 (inactive)"}
{"MOLECULE": "CCCCC[C@H](O)/C=C/[C@H]1CC[C@@H](O)[C@@H]1C/C=C\\CCCC(=O)O", "ENDPOINT VALUE": "≤ 0 (inactive)"}
{"MOLECULE": "CCCCCCCCCCCCCCC[C@@H](O)[C@H](CO)NC(=O)CCCCCCC [C8 Dihydroceramide]", "ENDPOINT VALUE": "≤ -0.021 (inactive)"}
{"MOLECULE": "CCCCC[C@H](O)/C=C/[C@@H]1[C@@H](C/C=C\\CCCC(=O)O)[C@H](O)C[C@H]1O [Prostaglandin F2.beta. (tromethamine salt)]", "ENDPOINT VALUE": "≤ 0 (inactive)"}
{"MOLECULE": "CN(C)CCCCC(=O)Nc1ccc(NC(=S)NC(=O)c2ccc(C(C)(C)C)cc2)cc1", "ENDPOINT VALUE": "0.143 (inactive)"}
{"MOLECULE": "CC(C)(C)C(=O)Nc1ccccc1", "ENDPOINT VALUE": "0.066 (inactive)"}
{"MOLECULE": "CCCCC[C@](C)(O)/C=C/[C@H]1C(=O)C[C@H](O)[C@@H]1C/C=C\\CCCC(=O)O [15(S)-15-methyl Prostaglandin D2]", "ENDPOINT VALUE": "≤ 0 (inactive)"}
{"MOLECULE": "CCCCCC(=O)CC[C@H]1C(=O)C[C@H](O)[C@@H]1C/C=C\\CCCC(=O)O [13,14-dihydro-15-keto Prostaglandin D2]", "ENDPOINT VALUE": "≤ 0 (inactive)"}
{"MOLECULE": "CCCCC[C@H](O)/C=C/[C@@H]1[C@H]2C/C(=C\\CCCC(=O)O)C[C@H]2C[C@H]1O [5-cis Carbaprostacyclin]", "ENDPOINT VALUE": "≤ 0 (inactive)"}
{"MOLECULE": "CCCCCC(O)/C=C/C=O (stereo not given) [4-hydroxy Nonenal]", "ENDPOINT VALUE": "≤ 0 (inactive)"}
{"MOLECULE": "CCCCCCC(Sc1nc(Cl)cc(NCc2ccc(-c3ccccc3)cc2)n1)C(=O)O (stereo not given)", "ENDPOINT VALUE": "≤ 0 (inactive)"}
{"MOLECULE": "CCCCC[C@H](O)/C=C/[C@@H]1[C@H](C/C=C\\CCCC(=O)O)[C@H](O)C[C@H]1O", "ENDPOINT VALUE": "0.004 (inactive)"}

These data points were gathered from the supplement of paper PMC9135407.
